Reference for the values: the supplement of paper PMC12855868

B1: library; numbered along this chain (parent)
chain: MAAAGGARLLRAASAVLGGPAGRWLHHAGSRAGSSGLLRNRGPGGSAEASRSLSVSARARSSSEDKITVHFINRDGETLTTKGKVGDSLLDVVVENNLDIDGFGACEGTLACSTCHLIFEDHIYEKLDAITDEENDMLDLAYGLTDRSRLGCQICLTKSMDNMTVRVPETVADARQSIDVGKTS

variants of: B1; test: scaled log2 fold change in cell abundance, elesclomol vs control (0 = silent mean, 1 = nonsense mean) (scaled log2 ratio); higher = higher viability under elesclomol (loss of FDX1 cuproptosis function); details: with ABC1 FDX1 KO; elesclomol 5 nM; glucose 10 mM; 14 days;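 note: variant abundance is its share of total variant reads in each endpoint sample, from next-generation sequencing of the integrated ORF PCR-amplified out of genomic DNA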
Experimental Readout: scaled log2 fold change
Please state the value as a number alone, without comment.

// below: answered variants
L89P = 0.89
D136N = 0.198
D75M = -0.0398

Item: `P43T` | scaled log2 fold change: 0.0182

Item: `K158D` | scaled log2 fold change: 0.233

Item: `A47K` | scaled log2 fold change: 0.89

Item: `G44P` | scaled log2 fold change: -0.094

Item: `D132E` | scaled log2 fold change: 0.299

Item: `A141F` | scaled log2 fold change: -0.22

Item: `T81A` | scaled log2 fold change: 0.0513

Item: `I67P` | scaled log2 fold change: 0.222

Item: `R149S` | scaled log2 fold change: 0.96

Item: `G181E` | scaled log2 fold change: -0.223

Item: `M137C` | scaled log2 fold change: -0.596
